B1: CPEB3 Ribozyme (parent)
chain: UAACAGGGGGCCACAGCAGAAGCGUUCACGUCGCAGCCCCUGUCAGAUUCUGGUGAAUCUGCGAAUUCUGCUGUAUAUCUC

variants of: B1; assay: self-cleavage, relative activity (ratio to wild type); higher = more cleavage; in vitro, sequencing
Classification field: criterion met = self-cleavage at or over 0.3; criterion not met = self-cleavage under 0.3.

Some entries whose results are on file:
UAACAGGGGGCGACAGCAGAAGCGUUCUCGUCGCAGCCCCUGUCAGAUUCUGGUGAAUCUGCGAAUUCUGCUGUAUAUCUC [C12G A28U]: criterion not met
UAACAGGGGGCCAGAGCAGAAGCGUUCACGUCGCAGCCCCCGUCAGAUUCUGGUGAAUCUGCGAAUUCUGCUGUAUAUCUC [C14G U41C]: criterion met

# input Does the reported self-cleavage for UAACAGGGCGCCACAGCAGAAGCGUUCACGUCGCAGCCCCUGUCAGAUUCUAGUGAAUCUGCGAAUUCUGCUGUAUAUCUC [G9C G52A] fall at or above the 0.3 mark?
# output criterion met

# input Please indicate if the recorded self-cleavage for UAACAGGGGGCCACAGCAGAAGCGAUCACGUCGCAGCCCCUGUCUGAUUCUGGUGAAUCUGCGAAUUCUGCUGUAUAUCUC [U25A A45U] meets or exceeds 0.3.
# output criterion not met

# input Can UAACAGGGGGCCACAGCAGAAGCGUUCACGUCGCAGCCCCUGUCAGAUUCUGGUGAAUCUGCGAAUUCUGCGGUACAUCUC [U72G U76C] be said to have self-cleavage at or above 0.3?
# output criterion met
